// koff lookup, one value per entry
Molecular target: T1, Human OSM (human, UniProt P13725 26-221)
T1 construct: Recombinant human OSM; also called hOSM; human Oncostatin M
T1 sequence: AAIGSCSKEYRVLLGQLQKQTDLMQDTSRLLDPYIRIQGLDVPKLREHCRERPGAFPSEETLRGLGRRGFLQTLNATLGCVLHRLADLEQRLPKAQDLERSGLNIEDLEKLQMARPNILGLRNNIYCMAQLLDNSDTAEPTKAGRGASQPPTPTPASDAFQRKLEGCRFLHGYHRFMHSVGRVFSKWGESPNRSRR
Test: BIAcore kinetics, transfection supernatant
Number in s⁻¹, nothing else.

Input: # lookup: koff of Humanised 10G8 H1L0 (antibody, V domains shown) VH: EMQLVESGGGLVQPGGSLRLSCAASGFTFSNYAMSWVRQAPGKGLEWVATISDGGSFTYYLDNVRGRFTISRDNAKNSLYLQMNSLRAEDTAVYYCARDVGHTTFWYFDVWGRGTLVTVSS VL: DIVMTQSPDSLAVSLGERATINCRASKSVSAAGYNFMHWYQQKPGQPPKLLIYYASNLESGVPDRFSGSGSGTDFTLTISSLQAEDVAVYYCLHSREFPFTFGGGTKVEIK
Output: 0.000162

Input: # lookup: koff of Humanised 10G8 H2L0 (antibody, V domains shown) VH: EVQLVESGGGLVQPGGSLRLSCAASGFTFSNYAMSWVRQAPGKGLEWVATISDGGSFTYYLDNVRGRFTISRDNAKNSLYLQMNSLRAEDTAVYYCARDVGHTTFWYFDVWGSGTLVTVSS VL: DIVMTQSPDSLAVSLGERATINCRASKSVSAAGYNFMHWYQQKPGQPPKLLIYYASNLESGVPDRFSGSGSGTDFTLTISSLQAEDVAVYYCLHSREFPFTFGGGTKVEIK
Output: 0.000145

Input: # lookup: koff of Humanised 10G8 H2L3 (antibody, V domains shown) VH: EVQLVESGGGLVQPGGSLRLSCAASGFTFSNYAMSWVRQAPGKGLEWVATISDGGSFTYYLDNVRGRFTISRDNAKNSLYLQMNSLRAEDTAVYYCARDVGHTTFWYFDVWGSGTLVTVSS VL: DIVMTQSPDSLAVSLGERATINCRASKSVSAAGYNFMHWYQQKPGQPPKLLIYYASNLESGVPDRFSGSGSGTDFTLTISSLQAEDVAVYYCLHSREFPFTFGGGTNVEIK
Output: 0.00015

Input: # lookup: koff of Humanised 10G8 H2L4 (antibody, V domains shown) VH: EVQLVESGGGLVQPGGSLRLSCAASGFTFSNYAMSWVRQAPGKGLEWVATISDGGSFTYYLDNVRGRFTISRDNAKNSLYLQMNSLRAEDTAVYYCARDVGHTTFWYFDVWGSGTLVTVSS VL: DIVMTQSPDSLAVSLGERATINCRASKSVSAAGYNFMHWYQQKPGQPPKVLIYYASNLESGVPDRFSGSGSGTDFTLTISSLQAEDVVVYYCLHSREFPFTFGGGTNVEIK
Output: 0.000101

The reported measurements were obtained from patent US20130251724A1.
